# Target desc: T1, SARS-CoV2 Spike ecto foldon Trimer expressed with a C-terminal myc-myc-hexahistidine (SARS-CoV-2, UniProt P0DTC2 14-1213)
# T1 construct: extracellular domain
# Assay details: SPR Biacore, mAb captured by anti-hFc, 37C
Test readout: kon (M⁻¹ s⁻¹)
Form entry: value (M⁻¹ s⁻¹) — number only.

[
  {
    "Binder": "mAb14285 (antibody, V domains shown) VH: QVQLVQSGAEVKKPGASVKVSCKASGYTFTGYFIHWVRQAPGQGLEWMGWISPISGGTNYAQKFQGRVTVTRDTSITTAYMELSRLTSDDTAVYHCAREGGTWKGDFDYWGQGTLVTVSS VL: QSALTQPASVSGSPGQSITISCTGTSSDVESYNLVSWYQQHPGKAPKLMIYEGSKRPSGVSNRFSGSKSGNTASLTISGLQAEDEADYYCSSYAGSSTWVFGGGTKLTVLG",
    "kon [M⁻¹ s⁻¹]": "1.16e+06"
  }
]

Query binder follows.
## Input Give its kon value. Item: mAb14280 (antibody, V domains shown) VH: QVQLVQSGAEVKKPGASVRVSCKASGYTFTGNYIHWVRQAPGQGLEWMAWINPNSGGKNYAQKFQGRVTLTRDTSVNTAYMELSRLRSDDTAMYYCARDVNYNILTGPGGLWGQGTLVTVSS VL: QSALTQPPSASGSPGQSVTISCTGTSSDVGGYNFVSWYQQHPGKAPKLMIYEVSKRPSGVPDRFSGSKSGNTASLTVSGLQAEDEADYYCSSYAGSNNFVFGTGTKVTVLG
## Output 985000
